ASSAY_PROTOCOL: Pharmacokinetics of GLP-1 compound after oral gavage with delivery agent (subcutaneous control)
Type: in vivo, Male Sprague Dawley rats
CONDITION_SET: male, Sprague Dawley, in vivo, sc; GLP-1 compound alone, solution, subcutaneous control 0.011 mg/kg, rat; read-out: AUC (converted)
No end group written: not given here.
MEASURED_PROPERTY: AUC (ng·h/mL)

* HVEGTFTSDVSSYLEEQAAKEFIAWLVKGRG [A] | 1.56

----------
ASSAY_PROTOCOL: Pharmacokinetics of GLP-1 compound after oral gavage with delivery agent (subcutaneous control)
Format: in vivo, Male Sprague Dawley rats
CONDITION_SET: male, Sprague Dawley, in vivo, sc; GLP-1 compound alone, solution, subcutaneous control 0.011 mg/kg, rat; read-out: Cmax
No end group written: not given here.
MEASURED_PROPERTY: Cmax (ng/mL)

- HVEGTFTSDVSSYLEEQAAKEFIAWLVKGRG [A]: 3.78

----------
ASSAY_PROTOCOL: Pharmacokinetics of GLP-1 compound after oral gavage with delivery agent (subcutaneous control)
Format: in vivo, Male Sprague Dawley rats
CONDITION_SET: male, Sprague Dawley, in vivo, sc; GLP-1 compound alone, solution, subcutaneous control 0.011 mg/kg, rat; read-out: Tmax (converted)
Description: A solution of Val^8-Glu^22-GLP-1 was prepared by dissolving the GLP-1 compound in distilled water to yield a concentration of 7 mg/mL. The pH was slowly raised to 10.5 with 2 N NaOH, followed by incubation at room temperature for 30 minutes. […] The solution was then filtered through a low protein binding […] syringe filter (Millex GV, Millipore) and the concentration of the GLP-1 compound was determined by UV spectroscopy. […]
No end group written: not given here.
MEASURED_PROPERTY: Tmax (min)

* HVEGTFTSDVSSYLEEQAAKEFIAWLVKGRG [A] | 10

----------
AUC values for the molecules below.
ASSAY_PROTOCOL: Pharmacokinetics of GLP-1 compound after oral gavage with delivery agent (subcutaneous control)
Format: in vivo, Male Sprague Dawley rats
CONDITION_SET: Peptide A 1.1 mg/kg + delivery agent 300 mg/kg, oral gavage, rat; Tris solution
Protocol: A solution of Val^8-Glu^22-GLP-1 was prepared by dissolving the GLP-1 compound in distilled water to yield a concentration of 7 mg/mL. The pH was slowly raised to 10.5 with 2 N NaOH, followed by incubation at room temperature for 30 minutes. […] The solution was then filtered through a low protein binding […] syringe filter (Millex GV, Millipore) and the concentration of the GLP-1 compound was determined by UV spectroscopy. […]
MEASURED_PROPERTY: AUC (pg·min/mL)

* CC(C)[C@H](NC(=O)C1CCCCC1)C(=O)O | 6068.5
* COc1ccccc1C(=O)Nc1ccc(CCCC(=O)O)cc1 | 15747
* CN(C)c1ccc(C(=O)Nc2ccc(CCCC(=O)O)cc2)cc1 | 21559.2
* CN(c1ccc(CCCC(=O)O)cc1)S(=O)(=O)c1ccccc1 | 21679.1
* COc1ccc(C(=O)NCCCCCCCC(=O)[O-])c([O-])c1.[Na+].[Na+] | 254291
* CC(=O)c1ccccc1OCCCCCCCC(=O)O | 59543
* O=C(O)CCCCCCCNC(=O)c1ccccc1 | 7202
* CNC(=O)c1ccccc1OCCCCCCCC(=O)O | 30164
* O=C(O)CCCc1ccc(NS(=O)(=O)c2ccccc2)cc1 | 94215
* O=C(O)[C@@H](NS(=O)(=O)c1ccccc1)c1ccccc1 | 5669
* CC(=O)c1ccccc1OCCCCCCCC(=O)[O-].[Na+] | 62303
* O=C(O)CCCCCCCNS(=O)(=O)c1ccccc1 | 42036
* CC(=O)c1ccccc1OCc1ccc(C(=O)O)cc1 | 35259
* CN(C)CCCCCCNC(=O)c1ccccc1O | 204611
* O=C(O)c1ccc(NS(=O)(=O)c2ccccc2)cc1 | 6087
* CN(CCCCCCCC(=O)O)C(=O)c1ccccc1O | 173548.6
* O=C(N[C@@H](Cc1ccccc1)C(=O)O)c1ccccc1 | 48324.4
* O=C(N[C@H](C(=O)O)c1ccccc1)c1ccccc1 | 20177.7
* CN(CCCCCCCC(=O)O)C(=O)c1ccccc1 | 237422.3

----------
ASSAY_PROTOCOL: Pharmacokinetics of GLP-1 compound after oral gavage with delivery agent (subcutaneous control)
Assay type: in vivo, Male Sprague Dawley rats
CONDITION_SET: Peptide A 1.1 mg/kg + delivery agent 300 mg/kg, oral gavage, rat; Tris solution
AUC values for the molecules below.
MEASURED_PROPERTY: AUC (pg·min/mL)

• CC(C)C[C@H](NC(=O)C1CCCCC1)C(=O)O [Delivery agent 45] = 13468.0
• O=C(N[C@@H](Cc1ccccc1)C(=O)O)C1CCCCC1 (stereo in doubt) [Delivery agent 46] = 19304.1
• O=C(O)CCCCCCCNC(=O)/C=C/c1ccccc1F [Delivery agent 51] = 10838
• O=C(O)CCCCCCCOc1ccccc1O [Delivery agent 26] = 113480.1
• COc1cc(O)ccc1C(=O)NCCCCCCCC(=O)O [Delivery agent 14] = 160066.6
• O=C(O)CCCc1ccc(NC(=O)C2CCCCC2)cc1 [Delivery agent 44] = 55671

----------
ASSAY_PROTOCOL: Pharmacokinetics of GLP-1 compound after oral gavage with delivery agent (subcutaneous control)
Assay type: in vivo, Male Sprague Dawley rats
CONDITION_SET: Peptide A 1.1 mg/kg + delivery agent 300 mg/kg, oral gavage, rat; Klucel suspension
AUC values for the compounds below.
MEASURED_PROPERTY: AUC (pg·min/mL)

• Cc1cccc(C(=O)NCCCCCCCC(=O)[O-])c1[O-].[Na+].[Na+] = 35239
• O=C(O)CCCCCCCOc1cccc(O)c1 = 299137.2
• COc1ccc(C(=O)NCCCCCCCN(C)C)c(O)c1 = 19972
• O=C(O)CCCCc1nnc(-c2ccccc2O)o1 = 218240.8

----------
ASSAY_PROTOCOL: Pharmacokinetics of GLP-1 compound after oral gavage with delivery agent (subcutaneous control)
Format: in vivo, Male Sprague Dawley rats
CONDITION_SET: Peptide A 1.1 mg/kg + delivery agent 300 mg/kg, oral gavage, rat; Tris suspension
Threshold check on AUC: at or above 60000 pg·min/mL gives Criterion met, strictly below gives Criterion not met.

• O=C(O)CCCCCCCNC(=O)c1ccncc1 = Criterion not met
• O=C(O)CCCCc1nnc(-c2ccccc2O)o1 = Criterion met
• O=C([O-])Cc1ccc(NC(=O)c2ccccc2O)cc1.[Na+] = Criterion not met
• O=C(O)CCCCCCCCCNC(=O)c1ccccc1O = Criterion not met
• O=C(O)CCCCCCc1nnc(-c2ccccc2)o1 = Criterion met
• O=C(O)CCCCCCCNC(=O)C1CCCCC1 = Criterion not met
• O=C(O)CCCCCCCNC(=O)c1ccccc1O = Criterion not met
• CN(C(=O)c1ccccc1)c1ccc(CCCC(=O)[O-])cc1.[Na+] = Criterion met
• CC(=O)c1ccccc1OCCCCCCCC(=O)O = Criterion not met
• O=C(N[C@@H](Cc1ccccc1)C(=O)O)c1ccccc1O = Criterion not met
• O=C(O)CCCCCCCNC(=O)c1ccccn1 = Criterion met
